For each record, write down the corresponding Inhibition.
Test system: Cricetinae gen. sp.
ASSAY_SUMMARY: Inhibition of lipid synthesis in hamster flank gland after administration of 0.1 mg.
Assay type: functional
Answer format: numeric, % implied, no suffix.

Record [O-][S+](CCl)Cc1ccccc1 (configuration not stated) ; system Cricetinae gen. sp.; Inhibition = 14

Observed Inhibition on Cricetinae gen. sp., entry Cc1ccccc1C[S+]([O-])[C@@]1(Cl)CCC2C3CCC4=CC(=O)C=C[C@]4(C)C3C(=O)C[C@@]21C (some centres not stated) , equals 31

Bench note, Cricetinae gen. sp.: C[C@]12C=CC(=O)C=C1CCC1C2C(=O)C[C@@]2(C)C1CC[C@]2(Cl)[S+]([O-])CCc1ccccc1 (some centres not stated) , Inhibition reads 0

Record for C[C@]12C=CC(=O)C=C1CCC1C2C(=O)C[C@@]2(C)C1CC[C@H]2[S+]([O-])Cc1ccccc1 (some centres not stated) under target or system Cricetinae gen. sp.: Inhibition reported as 28

The recorded Inhibition with Cricetinae gen. sp. for C[C@]12C=CC(=O)C=C1CCC1C2C(=O)C[C@@]2(C)C1CC[C@]2(Cl)[S+]([O-])Cc1ccc(Cl)cc1Cl (some centres not stated) was 20

For the compound C[C@]12C=CC(=O)C=C1CCC1C2CC[C@@]2(C)C1CC[C@H]2SCc1ccccc1 (some centres not stated) , the measured Inhibition on Cricetinae gen. sp. was 0

Form: item C[C@]12C=CC(=O)C=C1CCC1C2C(=O)C[C@@]2(C)C1CC[C@]2(Cl)[S+]([O-])c1ccccc1 (some centres not stated) ; test system Cricetinae gen. sp.; Inhibition: 20

Inhibition on Cricetinae gen. sp. for C[C@]12C=CC(=O)C=C1CCC1C2C(=O)C[C@@]2(C)C1CC[C@H]2[S+]([O-])C(Cl)c1ccccc1 (some centres not stated) is 0

# [O-][S+](Cc1ccccc1)[C@@H](Cl)c1ccccc1 (some centres not stated) with Cricetinae gen. sp.: Inhibition is 14

For the compound C[C@]12C=CC(=O)C=C1CCC1C2[C@@H](O)C[C@@]2(C)C1CC[C@H]2SCc1ccccc1 (some centres not stated) , the measured Inhibition on Cricetinae gen. sp. was 0
